Known cytotoxicity at 70.5 h of a selection of compounds
Assay: Human HepG2 cell viability assay in 384 well format
Format: toxicity, cell-based
Design: dose 125 nL, time 70.5 hour; concentration not given beside the values
Conditions: HepG2 cells, read-out: Inhibition
readout.name: cytotoxicity at 70.5 h (%)

compound	readout.value
CN1CCOC(CNC(=O)CCc2cc(F)ccc2F)C1 (configuration not stated)	-4.57
Cc1nc(C2CCN(c3ccccc3)CC2)no1	8.78
O=C(N[C@@H]1CN(Cc2c[nH]nc2-c2ccccc2)C[C@H]1O)c1cc[nH]n1	-9.21
Cc1cc(N2CCCC(N(C)C)C2)n2nc(C)cc2n1 (configuration not stated)	-17
O=C(COc1ccccc1F)NCCC(O)c1ccoc1 (configuration not stated)	-4.07
Cc1nc(-c2cccc(C(=O)O)c2)cc(C2CCCN(C(C)C)C2)n1 (configuration not stated)	13.2
COC(=O)c1ccc(S(=O)(=O)NCC(O)c2sccc2C)cc1 (configuration not stated)	-2.62
CCc1noc(C)c1C(=O)N1CCCC1Cn1cc(C)cn1 (configuration not stated)	25.2
CCC(=O)NCC(=O)NCC(C)(C)c1cccc(Br)c1	-5.47
COCC1COCCC12CCN(C(=O)Cc1cccc(OC)c1)CC2 (configuration not stated)	-11.4
Cc1ccc(-n2nnc(C(=O)NS(C)(=O)=O)c2C2CC2)cc1	-9
COc1ccc(CNC(=O)c2cc3c(nc2O)CCC(C)C3)cc1 (configuration not stated)	-8.97
Cc1nc(C)c(CC(=O)N2CCC(c3ccn4nccc4n3)CC2)s1	-1.07
CC(=O)c1cc(CC(=O)N2CCN(S(=O)(=O)c3ccccc3)CC2)cs1	-1.54
O=C([C@H]1C[C@H]2OCC[C@H]2N(Cc2ccncc2)C1)N1CCCCO1	-0.173
CCN1CCCC1CNCc1cc2ccccc2[nH]c1=O (configuration not stated)	-5.02
CCN1C[C@H]2CCN(C(=O)NC3CCCC3)CC[C@H]2S1(=O)=O	12.8
